B1: Azoarcus group I ribozyme (parent)
chain: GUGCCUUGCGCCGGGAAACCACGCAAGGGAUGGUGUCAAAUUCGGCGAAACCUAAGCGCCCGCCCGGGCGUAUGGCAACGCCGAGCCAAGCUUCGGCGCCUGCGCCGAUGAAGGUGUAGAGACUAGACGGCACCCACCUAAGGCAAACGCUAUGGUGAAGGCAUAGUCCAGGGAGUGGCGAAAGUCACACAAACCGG

Variants of: B1
Test: reverse-splicing fitness (ratio to wild type); higher = more active; in vitro selection; Mg2+ level not given
reverse-splicing fitness values, listed per item
Observed property: reverse-splicing fitness

Variant description | Result
C82G A111C A120C A145G C169U U176G | 0.00614
C82A A111C A120U A145G C150U C169U | 0.00603
A111G A145G C150G C169U | 0.0298
